// data source = paper PMC7464503

# assay-details: Cyclic voltammetry, electrochemical characterization of the antioxidant capacity
# Assay type: physicochemical
# stated-conditions: glassy carbon electrode, 20 mM acetate buffer pH 3.6; ± SD of three measurements
Overview of recorded Ip (peak intensity) for various compounds
Response body: numeric value in µA, unit text excluded.

Example results:
compound | measured-metric | quantitative-readout
C[Si](C)(CCCNC(=O)/C=C/c1ccc(O)c(O)c1)CCC[Si](CCC[Si](C)(C)CCCNC(=O)/C=C/c1ccc(O)c(O)c1)(CCC[Si](C)(C)CCCNC(=O)/C=C/c1ccc(O)c(O)c1)CCC[Si](C)(C)CCCNC(=O)/C=C/c1ccc(O)c(O)c1 [G1 (2), G1-[Si(CH2)3NH(CO)CH=CHCH2Ph(OH)2)]4] | Ip (peak intensity) | 1.39
COc1cc(/C=C/C(=O)NCCC[Si](C)(C)CCC[Si](CCC[Si](C)(C)CCCNC(=O)/C=C/c2ccc(O)c(OC)c2)(CCC[Si](C)(C)CCCNC(=O)/C=C/c2ccc(O)c(OC)c2)CCC[Si](C)(C)CCCNC(=O)/C=C/c2ccc(O)c(OC)c2)ccc1O | Ip (peak intensity) | 0.75
COc1cc(/C=C/C(=O)NCCC[Si](C)(C)CCC[Si](C)(CCC[Si](C)(C)CCCNC(=O)/C=C/c2ccc(O)c(OC)c2)CCC[Si](CCC[Si](C)(CCC[Si](C)(C)CCCNC(=O)/C=C/c2ccc(O)c(OC)c2)CCC[Si](C)(C)CCCNC(=O)/C=C/c2ccc(O)c(OC)c2)(CCC[Si](C)(CCC[Si](C)(C)CCCNC(=O)/C=C/c2ccc(O)c(OC)c2)CCC[Si](C)(C)CCCNC(=O)/C=C/c2ccc(O)c(OC)c2)CCC[Si](C)(CCC[Si](C)(C)CCCNC(=O)/C=C/c2ccc(O)c(OC)c2)CCC[Si](C)(C)CCCNC(=O)/C=C/c2ccc(O)c(OC)c2)ccc1O | Ip (peak intensity) | 0.56
COc1cc(C=CC(=O)O)ccc1O [Ferulic L, reference compound] | Ip (peak intensity) | 3.70
O=C(O)c1cc(O)c(O)c(O)c1 [Gallic L, 3,4,5-trihydroxybenzoic acid, reference compound] | Ip (peak intensity) | 3.87
C[Si](C)(CCCNC(=O)c1cc(O)c(O)c(O)c1)CCC[Si](CCC[Si](C)(C)CCCNC(=O)c1cc(O)c(O)c(O)c1)(CCC[Si](C)(C)CCCNC(=O)c1cc(O)c(O)c(O)c1)CCC[Si](C)(C)CCCNC(=O)c1cc(O)c(O)c(O)c1 [G1 (3), G1-[Si(CH2)3NH(CO)Ph(OH)3]4] | Ip (peak intensity) | 4.12

Proceeding to the next compound to report its Ip (peak intensity).
Notebook: O=C(O)/C=C/c1ccc(O)c(O)c1 [Caffeic L, reference compound] , Ip (peak intensity) read as 2.91

* * *

Each record here notes measured viability at 24 h, 16 ppm.
# assay-details: Cell viability by MTT assay
# Type: cell-based, human
# stated-conditions: human, HFF-1, 16 ppm
Report the figure in % without appending any unit label.

molecule | unit | viability at 24 h, 16 ppm
C[Si](C)(CCCNC(=O)/C=C/c1ccc(O)c(O)c1)CCC[Si](CCC[Si](C)(C)CCCNC(=O)/C=C/c1ccc(O)c(O)c1)(CCC[Si](C)(C)CCCNC(=O)/C=C/c1ccc(O)c(O)c1)CCC[Si](C)(C)CCCNC(=O)/C=C/c1ccc(O)c(O)c1 [G1 (2), G1-[Si(CH2)3NH(CO)CH=CHCH2Ph(OH)2)]4] | % | 100

// viability at 24 h, 16 ppm lookup, molecule = `COc1cc(/C=C/C(=O)NCCC[Si](C)(C)CCC[Si](CCC[Si](C)(C)CCCNC(=O)/C=C/c2ccc(O)c(OC)c2)(CCC[Si](C)(C)CCCNC(=O)/C=C/c2ccc(O)c(OC)c2)CCC[Si](C)(C)CCCNC(=O)/C=C/c2ccc(O)c(OC)c2)ccc1O` , result: 95.4

* * *

# assay-details: Cyclic voltammetry, electrochemical characterization of the antioxidant capacity
# Type: physicochemical
# stated-conditions: glassy carbon electrode, 20 mM acetate buffer pH 3.6, vs Ag|AgCl|KCl (3M); ± SD of three measurements
# Experimental: Electrochemical measurements were carried out on an Autolab PGSTAT 12 potentiostat from Metrohm (Utrecht, The Netherlands), employing a glassy carbon (GC) disk working electrode. The GC electrode was polished after each measurement using a 0.1 and 0.05 µm alumina/water slurry until a shiny mirror-like finish was achieved, and washed with ultrapure water. […]
Listed here are compounds together with their documented Ep (peak potential).

# example entries with known answers
compound | Ep (peak potential)
O=C(O)c1cc(O)c(O)c(O)c1 [Gallic L, 3,4,5-trihydroxybenzoic acid, reference compound] | 0.477 ± 0.001 V
COc1cc(C=CC(=O)O)ccc1O [Ferulic L, reference compound] | 0.686 ± 0.009 V
C[Si](C)(CCCNC(=O)c1cc(O)c(O)c(O)c1)CCC[Si](CCC[Si](C)(C)CCCNC(=O)c1cc(O)c(O)c(O)c1)(CCC[Si](C)(C)CCCNC(=O)c1cc(O)c(O)c(O)c1)CCC[Si](C)(C)CCCNC(=O)c1cc(O)c(O)c(O)c1 [G1 (3), G1-[Si(CH2)3NH(CO)Ph(OH)3]4] | 0.410 ± 0.008 V

Now consider the entry below.
According to the records, this compound O=C(O)/C=C/c1ccc(O)c(O)c1 [Caffeic L, reference compound] displays Ep (peak potential) of 0.263 ± 0.005 V

* * *

# assay-details: Cell viability by MTT assay
# Format: cell-based, human
# stated-conditions: human, HFF-1, 4 ppm
measured-metric: viability at 24 h, 4 ppm (%)
Write it as a number; the unit % goes unstated.

C[Si](C)(CCCNC(=O)c1cc(O)c(O)c(O)c1)CCC[Si](CCC[Si](C)(C)CCCNC(=O)c1cc(O)c(O)c(O)c1)(CCC[Si](C)(C)CCCNC(=O)c1cc(O)c(O)c(O)c1)CCC[Si](C)(C)CCCNC(=O)c1cc(O)c(O)c(O)c1 [G1 (3), G1-[Si(CH2)3NH(CO)Ph(OH)3]4] has a reported viability at 24 h, 4 ppm of 84.8

* * *

# assay-details: Cyclic voltammetry, electrochemical characterization of the antioxidant capacity
# Type: physicochemical
# stated-conditions: glassy carbon electrode, 20 mM acetate buffer pH 3.6, vs Ag|AgCl|KCl (3M); ± SD of three measurements
# Protocol: Electrochemical measurements were carried out on an Autolab PGSTAT 12 potentiostat from Metrohm (Utrecht, The Netherlands), employing a glassy carbon (GC) disk working electrode. The GC electrode was polished after each measurement using a 0.1 and 0.05 µm alumina/water slurry until a shiny mirror-like finish was achieved, and washed with ultrapure water. […]
Here the recorded Ep (peak potential) is given for each entry.
Could you give me the number in V? Just the number is fine.

Some compounds with known Ep (peak potential) results, for comparison:
compound | Ep (peak potential) [V]
COc1cc(/C=C/C(=O)NCCC[Si](C)(C)CCC[Si](C)(CCC[Si](C)(C)CCCNC(=O)/C=C/c2ccc(O)c(OC)c2)CCC[Si](CCC[Si](C)(CCC[Si](C)(C)CCCNC(=O)/C=C/c2ccc(O)c(OC)c2)CCC[Si](C)(C)CCCNC(=O)/C=C/c2ccc(O)c(OC)c2)(CCC[Si](C)(CCC[Si](C)(C)CCCNC(=O)/C=C/c2ccc(O)c(OC)c2)CCC[Si](C)(C)CCCNC(=O)/C=C/c2ccc(O)c(OC)c2)CCC[Si](C)(CCC[Si](C)(C)CCCNC(=O)/C=C/c2ccc(O)c(OC)c2)CCC[Si](C)(C)CCCNC(=O)/C=C/c2ccc(O)c(OC)c2)ccc1O | 0.613
COc1cc(/C=C/C(=O)NCCC[Si](C)(C)CCC[Si](CCC[Si](C)(C)CCCNC(=O)/C=C/c2ccc(O)c(OC)c2)(CCC[Si](C)(C)CCCNC(=O)/C=C/c2ccc(O)c(OC)c2)CCC[Si](C)(C)CCCNC(=O)/C=C/c2ccc(O)c(OC)c2)ccc1O | 0.637

Item: C[Si](C)(CCCNC(=O)/C=C/c1ccc(O)c(O)c1)CCC[Si](CCC[Si](C)(C)CCCNC(=O)/C=C/c1ccc(O)c(O)c1)(CCC[Si](C)(C)CCCNC(=O)/C=C/c1ccc(O)c(O)c1)CCC[Si](C)(C)CCCNC(=O)/C=C/c1ccc(O)c(O)c1 [G1 (2), G1-[Si(CH2)3NH(CO)CH=CHCH2Ph(OH)2)]4] | Ep (peak potential): 0.276
